- Tested on: CAKI-1 renal
- experiment-description: NCI-60 one-dose screen, 48 h (100 = growth as untreated, 0 = no growth, -100 = all killed)
- test-conditions: 10 µM unless noted
- Protocol: Growth inhibition of the CAKI-1 human tumor cell line is measured as a screen for anti-cancer activity. Cells are grown in 96 well plates and exposed to the test compound for 48 hours. Compounds are tested at a single concentration, which is 10^-5 M for most compounds. The reported endpoint is percent growth (GI% or GIPRCNT), where numbers from 0 - 100% represent growth inhibition, and numbers from -100% - 0 represent cell death. For example, a value of 40 represents 60% growth inhibition. […]
Compounds without any hit were thinned out: in the full panel of roughly 83,000, 20% have a hit.
Measured growth, listed per entry.
Express the result in % but write the number alone.

compound	measured-on	growth, %
CC1=NN(c2ccccc2)C(=O)C1C(=O)c1ccccc1 (stereo not drawn)	CAKI-1 renal	95.9
COc1ccc2ccccc2c1/C=N/N1CCCCC1	CAKI-1 renal	85.7
O=C=NC(c1ccccc1)(c1ccccc1)c1ccccc1	CAKI-1 renal	91.7
COc1ccc2nc(Cl)cc(C)c2c1	CAKI-1 renal	85.6

Quick one: give measured growth for CC1=C(/C=C/C(C)=C/C=C/C(C)=C/C(=O)Nc2ccc(O)cc2)C(C)(C)CCC1
47

Identify the reported growth for the following entry. CCCCCCCCCCCCOc1ccccc1C=O
84.9

Specify measured growth for Oc1ccccc1C=NCC1CCC(CN=Cc2ccccc2O)CC1 (stereo not drawn) .
46.1

Look up and state reported growth for COc1ccc(NC(=S)Nc2ccccn2)cc1
89.3

---

- Tested on: MDA-MB-231 breast
- experiment-description: NCI-60 one-dose screen, 48 h (100 = growth as untreated, 0 = no growth, -100 = all killed)
- test-conditions: 10 µM unless noted
About 83,000 compounds went through this panel and 20% of them were active in at least one assay; those are over-represented in the sample as a whole. Active and inactive are the calls of the source. Rule for the calls: active = growth percent below 10; inactive = the rest.
# growth per record follows

compound	growth
Clc1nc(Oc2ccccc2)nc(-c2cn(-c3ccccc3)c3ccccc23)n1	40% (inactive)
Nc1ccc2[nH]c(-c3ccccc3)cc(=O)c2c1	100% (inactive)
N#CCCOc1ccccc1	108% (inactive)

Check the records and state growth for Nc1ccccc1SC1CC(=O)N(c2cccc3ccccc23)C1=O (configuration not stated)
91.9% (inactive)

Using known records, supply growth for CNC(=O)c1cccnc1
102% (inactive)

Provide measured growth value, entry: CC1=NN(c2ccccc2)C(=O)C1C(=O)c1ccccc1 (configuration not stated)
97.1% (inactive)

Output measured growth for this item: NC(=S)N/N=C(\c1ccc(Br)cc1)C1CC1
67.2% (inactive)

Specify reported growth for the compound shown: Oc1ccccc1C=NCC1CCC(CN=Cc2ccccc2O)CC1 (configuration not stated)
101% (inactive)

Please report the measured growth for CCC(=O)C(CC)c1cccc(OC)c1 (configuration not stated)
111% (inactive)

---

- Tested on: HCT-15 colon
- experiment-description: NCI-60 one-dose screen, 48 h
- test-conditions: 10 µM
This is part of a sample that, as a whole, favours compounds with a hit. Of some 83,000 tested, about 20% had one in any assay. Active and inactive are the calls of the source. Rule for the calls: active = growth percent below 10; inactive = the rest.
Allowed answers: true (1) = active, false (0) = inactive

compound	assigned-category
Cc1[nH]c(-c2nc3ccccc3[nH]2)c(C)c1C(=O)NC(C)C1CCCCC1 (stereo not given)	false (0)

// param item: CC#C[C@]1(O)CC[C@H]2[C@@H]3CCC4=CC(=O)CCC4=C3[C@@H](c3ccc4c(c3)OCO4)C[C@@]21C ; yields the recorded call
false (0)

# outcome recorded in this test, key = CC1(C)OB(c2ccc(Cn3cc(F)c(=O)[nH]c3=O)cc2)OC1(C)C
false (0)

What did this assay record as the result for CC(C)(C)c1cc(NC(=O)Cc2ccc(-c3cnc4cc(-c5cnn(CCN6CCOCC6)c5)ccc4n3)cc2)no1 ?
true (1)

// param item: CCCCCCCCCCCCCCCc1ccc(Cl)c(O)c1Cl (tested in a mixture with another compound) ; yields the recorded call
false (0)
